From: patent US20240116985A1

- Assayed System: beta-catenin/TCF4 engagement (Homo sapiens, UniProt P35222)
- Construct: expressed in transfected cells; host or cells: HEK293
- Sequence (P35222 whole entry): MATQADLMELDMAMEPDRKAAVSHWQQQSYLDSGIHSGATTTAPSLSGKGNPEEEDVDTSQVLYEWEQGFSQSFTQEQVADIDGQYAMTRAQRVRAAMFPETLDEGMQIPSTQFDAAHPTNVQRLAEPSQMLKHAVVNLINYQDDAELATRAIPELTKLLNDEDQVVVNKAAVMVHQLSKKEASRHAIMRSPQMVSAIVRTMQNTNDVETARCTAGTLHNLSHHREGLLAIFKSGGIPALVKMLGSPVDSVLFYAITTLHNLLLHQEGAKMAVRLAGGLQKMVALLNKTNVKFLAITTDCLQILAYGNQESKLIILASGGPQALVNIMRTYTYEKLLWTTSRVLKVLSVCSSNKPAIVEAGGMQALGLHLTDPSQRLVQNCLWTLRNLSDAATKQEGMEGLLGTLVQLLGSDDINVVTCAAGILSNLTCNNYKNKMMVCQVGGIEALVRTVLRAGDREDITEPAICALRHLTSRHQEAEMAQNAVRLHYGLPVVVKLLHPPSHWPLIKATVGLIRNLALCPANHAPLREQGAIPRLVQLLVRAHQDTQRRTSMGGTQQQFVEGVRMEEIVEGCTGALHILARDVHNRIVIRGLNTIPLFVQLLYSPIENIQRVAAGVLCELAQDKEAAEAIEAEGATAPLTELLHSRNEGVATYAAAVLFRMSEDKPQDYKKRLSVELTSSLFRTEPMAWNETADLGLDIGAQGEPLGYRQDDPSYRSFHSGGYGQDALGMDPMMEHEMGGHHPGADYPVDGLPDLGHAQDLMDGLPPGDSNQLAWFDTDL
- Assay Protocol: Nano-BRET target engagement assay (B-cat-Halo & TCF4-Luc in HEK293 cells)
- Assay type: cell-based
- Condition Parameters: absolute IC50; read-out: NanoBRET Abs IC50
Listing of recorded IC50 by entry.

| Compound | IC50 |
| --- | --- |
| CC(=O)N1CCC[C@]12CC=CCCCC1(CCCC=CCCCOC(=O)N3CC[C@@](C(=O)N[C@@H](Cc4ccsc4)C(=O)N[C@@H](Cc4csc5ccccc45)C(=O)N[C@@H](CCC(=O)N4CCN(CCCN(C)C)CC4)C(N)=O)(C3)NC(=O)[C@H](CC(C)C)NC(=O)[C@H](Cc3ccccc3)NC(=O)[C@H](C)NC(=O)[C@H](C)NC(=O)[C@H](CN(CC(=O)O)CC(F)(F)F)NC(=O)[C@H](CC(=O)O)NC1=O)NC(=O)[C@H](CC(C)(C)C)NC(=O)[C@H](CC(=O)O)NC2=O (some centres unmarked) [I-1799] | 25.8 µM |
| CC(=O)N1CCC[C@]12CC=CCCCC1(CCCC=CCCCOC(=O)N3CC[C@@](C(=O)N[C@@H](Cc4ccsc4)C(=O)N[C@@H](Cc4csc5ccccc45)C(=O)N[C@@H](CCC(N)=O)C(N)=O)(C3)NC(=O)[C@H](CC(C)C)NC(=O)[C@H](Cc3ccccc3)NC(=O)[C@H](C)NC(=O)[C@H](C)NC(=O)[C@H](CCN(CC(=O)O)C(=O)c3ccc(CN4CCOCC4)cc3)NC(=O)[C@H](CC(=O)O)NC1=O)NC(=O)[C@H](CC(C)(C)C)NC(=O)[C@H](CC(=O)O)NC2=O (some centres unmarked) [I-2248] | 21.5 µM |
| CC(=O)N1CCC[C@]12CC=CCCCC1(CCCC=CCCCOC(=O)N3CC[C@@](C(=O)N[C@@H](Cc4ccccc4C(F)(F)F)C(=O)N[C@@H](Cc4csc5ccccc45)C(=O)N[C@@H](CCC(N)=O)C(=O)N[C@@H](CC(C)C)C(=O)N[C@@H](CO)C(N)=O)(C3)NC(=O)[C@H](CC(C)C)NC(=O)[C@H](Cc3ccccc3)NC(=O)[C@H](C)NC(=O)[C@H](C)NC(=O)[C@H](Cc3cccc(C(=O)O)c3)NC(=O)[C@H](CC(=O)O)NC1=O)NC(=O)[C@H](CC(C)(C)C)NC(=O)[C@H](CC(=O)O)NC2=O (some centres unmarked) [I-2384] | 4.6 µM |
| CC(=O)N1CCC[C@]12CC=CCCCC1(CCCC=CCCCOC(=O)N3CC[C@@](C(=O)N[C@@H](Cc4ccccc4C(F)(F)F)C(=O)N[C@@H](Cc4csc5ccccc45)C(=O)N[C@@H](CO)C(N)=O)(C3)NC(=O)[C@H](Cc3ccccc3)NC(=O)[C@H](Cc3ccccc3)NC(=O)[C@H](C)NC(=O)[C@H](C)NC(=O)[C@H](Cc3ccccc3C(=O)O)NC(=O)[C@H](CC(=O)O)NC1=O)NC(=O)[C@H](CC(C)(C)C)NC(=O)[C@H](CC(=O)O)NC2=O (some centres unmarked) [I-1659] | 11.4 µM |
| CC(=O)N1CCC[C@]12CC=CCCCC1(CCCC=CCCCOC(=O)N3CC[C@@](C(=O)N[C@@H](Cc4ccccc4Cl)C(=O)N[C@@H](Cc4csc5ccccc45)C(=O)N[C@@H](C(N)=O)[C@H](C)O)(C3)NC(=O)[C@H](CC(C)C)NC(=O)[C@H](Cc3ccccc3)NC(=O)[C@H](C)NC(=O)[C@H](C)NC(=O)[C@H](CC(=O)O)NC(=O)[C@H](CC(=O)O)NC1=O)NC(=O)[C@H](CC(C)(C)C)NC(=O)[C@H](CC(=O)O)NC2=O (some centres unmarked) [I-1035] | 10.2 µM |
